System: SK-MEL-5 melanoma
Test: NCI tumour cell line growth inhibition, 48 h
measurement_label: TGI

Consider the reported TGI for these molecules:
INSERT INTO assay_data (molecule, value) VALUES
  ('Oc1[nH]c2cc(Cl)ccc2c1/C=c1/ccc2c(c1)N=C(c1cc(F)cc(F)c1)N=2', '7.59 µM'),
  ('O=C1c2ccccc2-c2[nH]c3cn[nH]c(=O)c3c21', '> 100 µM'),
  ('CC(=O)OC1CC2C(=O)C(=O)C1(C)C2(C)C (centres undefined)', '> 100 µM'),
  ('CO[C@H]1C[C@H](O[C@H]2CC[C@]3(C=O)[C@H]4CC[C@]5(C)[C@@H](C6=CC(=O)OC6)CC[C@]5(O)[C@@H]4CC[C@]3(O)C2)O[C@H](C)[C@H]1O', '0.385 µM'),
  ('Cc1cc(Cl)ccc1Nc1nc(C(F)(F)F)ccc1C(=O)N1CCN(c2cccc(Cl)c2)CC1', '> 100 µM');

Q) Data request, read-out TGI, for C#CCC1(C(=O)OCC)C(=O)c2ccccc2N(C)C1=O (centres undefined)
A) > 100 µM

Q) Data request, read-out TGI, for COC(=O)[C@@H]1CN(C(=O)c2ccccc2)C(=O)N1C(=O)OCc1ccccc1
A) > 100 µM

Q) Data request, read-out TGI, for O=C(c1ccco1)N(C(=S)OC12CC3CC(CC(C3)C1)C2)c1ccccc1
A) 35.5 µM

Q) Data request, read-out TGI, for N#Cc1nc(C#N)n(C(=O)c2ccccc2)c1NC(=O)c1ccccc1
A) > 100 µM

====

Recorded TGI, one value per entry.
Test system: CCRF-CEM leukemia
Assay: NCI tumour cell line growth inhibition, 48 h

INSERT INTO measurements (compound, value) VALUES
  ('Cc1cc2cc3c(cc2c(-c2ccc(N)cc2)n1)OCO3', '> 100 µM');

Q) Data request, read-out TGI, for O=C(Nc1cccc(-n2cc(-c3ccncc3)c(-c3ccc(O)c(Cl)c3)n2)c1)c1cccc(C(F)(F)F)c1
A) > 100 µM

====

Recorded TGI, one value per entry.
System: EKVX NSCLC
Test: NCI tumour cell line growth inhibition, 48 h

INSERT INTO measurements (compound, subject_of_test, value) VALUES
  ('CC(C)(C)OC(=O)n1cc(C2CN(O)C(=O)C23CCC(=O)N3Cc2ccccc2)c2ccccc21 (stereo not given)', 'EKVX NSCLC', '47.7 µM'),
  ('O=C(CC1Sc2ccccc2NC1=O)Nc1ccc(Cl)cc1 (stereo not given)', 'EKVX NSCLC', '> 100 µM'),
  ('Cc1nc(N)nc2ccccc12', 'EKVX NSCLC', '> 100 µM'),
  ('COc1ccc2nc3ccccc3c(NCCCCN(C)CCCl)c2c1', 'EKVX NSCLC', '3.05 µM'),
  ('CC1=C(C(=O)Nc2ccc(Cl)c(Cl)c2)C(c2ccccc2O)NC(=O)N1 (stereo not given)', 'EKVX NSCLC', '> 50 µM'),
  ('CCOC(=O)c1cnccc1CC1(C#N)c2ccccc2C=CN1C(=O)c1ccccc1 (stereo not given)', 'EKVX NSCLC', '> 100 µM'),
  ('COC(=O)c1c(-c2ccc(Cl)cc2)cc2c3ccccc3n(C)c2c1C(=O)OC', 'EKVX NSCLC', '> 100 µM'),
  ('CC(C)(C)C1CC[C@H](O)[C@H]([C@H](O)CC2CC(=O)N(c3ccccc3)C(=O)C2)C1 (stereo not given in full)', 'EKVX NSCLC', '> 100 µM'),
  ('Cc1cc2cc3c(cc2c(-c2ccc(N)cc2)n1)OCO3', 'EKVX NSCLC', '> 100 µM');

Let's switch to this compound now.
Q) Data request, read-out TGI, for CO[C@@]12[C@@H]3NC3CN1C1=C(C(=O)C(N)=C(C)C1=O)[C@@H]2COC(N)=O (stereo not given in full)
A) 20.2 µM

====

System: 786-0 renal
// classify into active, inactive

Solved cases (3 shown):
INSERT INTO assay_data (molecule, classification) VALUES
  ('O=C(Nc1ccccc1C(=O)N/N=C(\c1ccccc1)c1ccccn1)c1ccc(F)cc1', 'active'),
  ('CC1(C)OC2C(COS(N)(=O)=O)SC(n3cnc4cncnc43)C2O1 (centres undefined)', 'inactive'),
  ('O=C(Cc1csc2nc(-c3ccc(Br)cc3)cn12)N/N=C/c1ccc(O)cc1', 'inactive');

Next:
Q) So what was the verdict on CC1CC2(C)CC(=O)C1C1C(=O)N(CCN3CCCCC3)C(=O)C12 (centres undefined) in this test?
A) inactive

====

System: MOLT-4 leukemia
Assay: NCI tumour cell line growth inhibition, 48 h
Tick rule met if TGI is 30 µM or greater. Tick rule not met if TGI is less than 30 µM.

Solved cases (2 shown):
INSERT INTO measurements (compound, classification) VALUES
  ('C#CCC1(C(=O)OCC)C(=O)c2ccccc2N(C)C1=O (stereo unspecified)', 'rule met'),
  ('CC(=O)O[C@H]1CC[C@@]2(C)[C@H](CC[C@@H]3[C@@H]2CC[C@]2(C)[C@@H](c4ccc(=O)oc4)C[C@H]4O[C@]342)C1', 'rule not met');

Q) Is TGI for COc1cc2c(c(OC)c1OC)-c1ccc(SC)c(=O)cc1[C@@H](NC(=O)c1ccc(Cl)cc1)CC2 at or above 30 µM?
A) rule met

Q) Is TGI for CCC1CNC(=O)CC1CC(=O)OC (stereo unspecified) at or above 30 µM?
A) rule met

Q) Is TGI for CC1(C2CCC3(C)OC3C2)CO1 (stereo unspecified) at or above 30 µM?
A) rule met

Q) Is TGI for Nc1ccc2c(c1)c(N)nn2C(=O)Nc1ccc(Cc2ccccc2)cc1 at or above 30 µM?
A) rule not met

Q) Is TGI for Cn1c2ccccc2n2c3ncccc3c(=S)c(C#N)c12 at or above 30 µM?
A) rule met

Q) Is TGI for CC1CCC2N(C1)CC1C3(O)CC45OC6(O)C(O)CCC4(C)C6CCC5C3(O)CC(O)C1(O)C2(C)O (stereo unspecified) at or above 30 µM?
A) rule met

Q) Is TGI for O=C1CN(/N=C/c2ccc(-c3ccc(F)cc3)o2)C(=O)N1 at or above 30 µM?
A) rule met

Q) Is TGI for O=C(NCCCCCCCNC(=O)OCc1ccc2c(Cl)cc(Cl)c(O)c2n1)OCc1ccc2c(Cl)cc(Cl)c(O)c2n1 at or above 30 µM?
A) rule not met

Q) Is TGI for O=C1C=CC(=O)c2c(Cl)ccc(O)c21 at or above 30 µM?
A) rule not met

Q) Is TGI for C[C@]12CC[C@H](OC3CCCCO3)CC1=CC[C@@H]1C2CC[C@]2(C)/C(=N/O)CCC12 (stereo partly specified) at or above 30 µM?
A) rule met

Q) Is TGI for CCOC(=O)C1(C(F)(F)F)N=C(CC)OC(N2CCOCC2)=N1 (stereo unspecified) at or above 30 µM?
A) rule met

Q) Is TGI for CC(C)(C)C1CC[C@H](O)[C@H]([C@H](O)CC2CC(=O)N(c3ccccc3)C(=O)C2)C1 (stereo partly specified) at or above 30 µM?
A) rule met

Q) Is TGI for CCOC(=O)C1CCCCN1CCc1c[nH]c2ccccc12 (stereo unspecified) at or above 30 µM?
A) rule met

Q) Is TGI for COc1ccc(C2CCc3cc4c(cc3/C2=N/OC(C)=O)OCO4)cc1OC (stereo unspecified) at or above 30 µM?
A) rule met

Q) Is TGI for COc1ccc(C(O)CC(O)(C(F)(F)F)C(F)(F)F)cc1 (stereo unspecified) at or above 30 µM?
A) rule met

Q) Is TGI for CCCCCCCCCCCCCCCCOC(=O)c1cc(O)cc(C(=O)OCCCCCCCCCCCCCCCC)c1 at or above 30 µM?
A) rule met

Q) Is TGI for COc1cccc(/C=C/C(=O)c2cc3c(N)c(C(=O)Nc4cccc5ccccc45)sc3nc2C)c1 at or above 30 µM?
A) rule met

====

Tested on: RXF 393 renal
// classify into active, inactive

Solved cases (5 shown):
INSERT INTO measurements (compound, subject_of_test, classification) VALUES
  ('COc1cccc(C2NC(=S)NC(C)=C2C(=O)Nc2ccc(Cl)c(Cl)c2)c1 (configuration not stated)', 'RXF 393 renal', 'inactive'),
  ('C=[CH][Sn]([CH]=C)([O]c1cccc2cccnc12)[O]c1cccc2cccnc12', 'RXF 393 renal', 'active'),
  ('O=C(NCCCCCCCNC(=O)OCc1ccc2c(Cl)cc(Cl)c(O)c2n1)OCc1ccc2c(Cl)cc(Cl)c(O)c2n1', 'RXF 393 renal', 'inactive'),
  ('CO[C@@]12[C@@H]3NC3CN1C1=C(C(=O)C(N)=C(C)C1=O)[C@@H]2COC(N)=O (some centres not stated)', 'RXF 393 renal', 'inactive'),
  ('Cc1ccc(C(C)C)cc1NC(=O)Nc1ccc([N+](=O)[O-])cc1', 'RXF 393 renal', 'inactive');

Q) So what was the verdict on Nc1ccc2c(c1)c(N)nn2C(=O)Nc1ccc(Cc2ccccc2)cc1 in this test?
A) inactive

Q) So what was the verdict on Oc1[nH]c2cc(Cl)ccc2c1/C=c1/ccc2c(c1)N=C(c1cc(F)cc(F)c1)N=2 in this test?
A) inactive

Q) So what was the verdict on COc1cc(NC(=O)Nc2cnc(Nc3ccc(N4CCOCC4)cc3)nc2Oc2cccc(OC)c2)cc(OC)c1 in this test?
A) inactive

Q) So what was the verdict on CCOc1cc(-c2ccc[nH]2)[nH]c1/C=C1\N=C(C)C(C(=O)OC)=C1C in this test?
A) active

Q) So what was the verdict on CC/C=C\C/C=C\C[C@H](O)C/C=C1/C(=O)C=C[C@@H]1C/C=C\CCCC(=O)OC in this test?
A) inactive

Q) So what was the verdict on Oc1ccc(Cl)cc1Cc1cc(Cl)ccc1O in this test?
A) inactive

Q) So what was the verdict on CC(=O)N(Cc1ccccc1)c1ccccc1I(=O)=O in this test?
A) inactive
